Tested on: K562 CRISPRi cells
Assay Protocol: Constant region variant library pooled growth screen, K562
Type: cell-based, human
Study Conditions: sgRNA constant region variants; activity relative to the original, un-modified constant region cr995
List of Mean relative activity values.

Molecule	Mean relative activity
cr380 (nucleic acid, listed as DNA, chemistry not fully specified) guide: GTTTAAGAGCTAAGCTGGAAACAGCATAGCAAGTTTAAATAAGGCTAGTCCGTTATCAACTTGAGAAAGTGGTACCGAGTCGGTACT	1.055
cr903 (nucleic acid, listed as DNA, chemistry not fully specified) guide: GTTTAAGAGCTAAGCTGGAAACAGCATAGCAAGTTTAAATAAGGCTAGTCCCTTATCAACTTGAAAAAGTGGCACCGAATCGGTGCT	0.00222
cr472 (nucleic acid, listed as DNA, chemistry not fully specified) guide: GTTTAAGAGCTAAGCTGGAAACAGCATAGCAAGGTTAAATAAGGTTAATCCGTTATCAACTTGAAAAAGTGGCACCGAGTCGGTGCT	0.004917
cr543 (nucleic acid, listed as DNA, chemistry not fully specified) guide: GTTTAAGAGCTAAGCTGGAAACAGCATAGCAAGTCTAAATAAGGCTAGTCCGTTATCAACTTGAAAAAGTGGCACCGAGTCGGTGCT	0.8231
cr208 (nucleic acid, listed as DNA, chemistry not fully specified) guide: GTTTAAGAGCTAAGCTGGAAACAGCATAGCAAGTTTAAATAAGGCTAGTCCTTCATCAACTTGAAGAAGTGGCACCGAGTCGGTGCT	0.03711
cr235 (nucleic acid, listed as DNA, chemistry not fully specified) guide: GTTTAAGAGCTAAGCTGGAAACAGCATAGCAAGTTTAAATAAGGCTAGTCCGTTATCAACATGAGAATGTGGCACCGAGTCGGTGCT	1.027
cr628 (nucleic acid, listed as DNA, chemistry not fully specified) guide: GTTTAAGAGCTAAGCTGGAAACAGCATAGCAAGTTTAAATAAGGCTAGTCCGTTATCAACTTGAAAAAGTGGTACCAAGTTGGTACT	1.033
